B1: KCNA3 (parent)
chain: YQSGGRIRRPVNVPIDIFSEEIRF

Variants of: B1
test_details: protein stability index of a GFP-peptide fusion (GPS, HEK-293T) (PSI 1-6); higher = more stable;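 further: lentivirally expressed fusions sorted by FACS into six bins by GFP to DsRed ratio, PSI derived from sequencing read proportions per bin multiplied by bin number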
condition: c terminus: a fixed tail appended
assay_endpoint: protein stability index
# output: bare number, no unit

Please review the following examples before continuing.
> print(dat)
   mutant.name  value.measured
1         D16C            1.41
2         I17R            2.48
3         F24M            2.52
4         E21L            2.09
5         I15A            3.48

## Input Item `S19L` : provide protein stability index
## Output 1.41

## Input Item `I22K` : provide protein stability index
## Output 2.31

## Input Item `I7D` : provide protein stability index
## Output 2.92

## Input Item `G5L` : provide protein stability index
## Output 2.09

## Input Item `I17A` : provide protein stability index
## Output 2.85

## Input Item `R6P` : provide protein stability index
## Output 1.91
